Origin of the recorded values: patent US6358885B1

Test system: bedstraw
Experiment: Test B preemergence/postemergence greenhouse plant response rating 0 to 10
Type: in vivo, Galium aparine
Conditions: Rate 200 g/ha, POSTEMERGENCE; 0 to 10 scale

{"COMPOUND": "Oc1cc(-c2nn3c(c2Br)CCCC3)c(F)cc1Cl", "Plant response rating, Bedstraw": 10}
{"COMPOUND": "CC(C)OC(=O)COc1cc(-c2nn3c(c2Br)CCCC3)c(F)cc1Cl", "Plant response rating, Bedstraw": 10}
{"COMPOUND": "CCOC(=O)c1cc(-c2nn3c(c2Cl)CCCC3)c(F)cc1Cl", "Plant response rating, Bedstraw": 9}
{"COMPOUND": "CCOCOc1cc(-c2nn3c(c2Cl)CCCC3)c(F)cc1Cl", "Plant response rating, Bedstraw": 8}
{"COMPOUND": "Clc1cc(Cl)c(-c2nn3c(c2Cl)CCCC3)cc1OCC1CC1", "Plant response rating, Bedstraw": 7}
{"COMPOUND": "CC(C)Oc1cc(-c2nn3c(c2Cl)CCCC3)c(Cl)cc1Cl", "Plant response rating, Bedstraw": 7}
